Test system: EN (Endometrial Carcinoma)
assay: combination Emax (second highest fraction inhibited in the dose matrix, 72 h); higher = more inhibition; extreme values may be limits of the assay
Measured combination Emax accompanies every entry in the list below.
experimentalReadout: combination Emax

Cc1nc(Nc2ncc(C(=O)Nc3c(C)cccc3Cl)s2)cc(N2CCN(CCO)CC2)n1 [Dasatinib] + CC(=O)Nc1cccc(-n2c(=O)n(C3CC3)c(=O)c3c(Nc4ccc(I)cc4F)n(C)c(=O)c(C)c32)c1 [Trametinib] (first compound max 2 µM, 7x7, partner max 1 µM) | 0.289
CS(=O)(=O)CCNCc1ccc(-c2ccc3ncnc(Nc4ccc(OCc5cccc(F)c5)c(Cl)c4)c3c2)o1 [Lapatinib] + NC1(c2ccc(-c3nc4ccn5c(=O)[nH]nc5c4cc3-c3ccccc3)cc2)CCC1 [MK-2206] (first compound max 10 µM, 7x7, partner max 10 µM) | 0.512
CN(CCO)CC[C@H](CSc1ccccc1)Nc1ccc(S(=O)(=O)NC(=O)c2ccc(N3CCC([C@@H](O)c4ccccc4-c4ccc(Cl)cc4)CC3)cc2)cc1S(=O)(=O)C(F)(F)F [AZD4320] + CS(=O)(=O)CCNCc1ccc(-c2ccc3ncnc(Nc4ccc(OCc5cccc(F)c5)c(Cl)c4)c3c2)o1 [Lapatinib] (first compound max 1 µM, 7x7, partner max 10 µM) | 0.229
